- Measured Target: IRAK4 (Homo sapiens, UniProt Q9NWZ3)
- Construct: Degradation of IRAK4 in OCI-LY10 was quantitatively measured using Meso Scale Discovery technology; endogenous in cells; host or cells: OCI-LY10
- Sequence (Q9NWZ3 whole entry): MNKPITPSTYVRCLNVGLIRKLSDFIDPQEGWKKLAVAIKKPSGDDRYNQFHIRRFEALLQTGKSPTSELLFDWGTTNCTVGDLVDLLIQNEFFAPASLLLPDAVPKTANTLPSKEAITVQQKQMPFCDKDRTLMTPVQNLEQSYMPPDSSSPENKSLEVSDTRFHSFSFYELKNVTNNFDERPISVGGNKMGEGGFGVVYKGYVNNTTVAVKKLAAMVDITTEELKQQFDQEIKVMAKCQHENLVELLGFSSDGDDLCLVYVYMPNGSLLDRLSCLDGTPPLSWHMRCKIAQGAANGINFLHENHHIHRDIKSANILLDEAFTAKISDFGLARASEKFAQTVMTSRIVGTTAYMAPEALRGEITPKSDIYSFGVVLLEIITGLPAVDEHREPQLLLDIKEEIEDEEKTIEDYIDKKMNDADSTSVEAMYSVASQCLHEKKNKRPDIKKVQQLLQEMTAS
- Measurement Protocol: IRAK4 MSD Degradation in OCI-LY10
- Type: cell-based
- Condition Parameters: OCI-LY10 cells, 4 hrs incubation, MSD; read-out: IRAK4 degradation in OCI-LY10 at 4 hrs: DC50
- Description: Degradation of IRAK4 in OCI-LY10 was quantitatively measured using Meso Scale Discovery technology. […] Compounds were then added to the assay plates with a final top concentration of 1 to 10 μM in a 1:3 dilution series with total of 8 doses. […] The assay plates were then incubated at room temperature for 1 hour, washed 3 times with 150 μL/well TBST buffer, and 150 μL/well MSD reading buffer (Meso Scale Discovery catalog number R92TC-2) was added. […]
Readout: DC50

Compound	Readout	Result
Cn1c(=O)n(C2CCC(=O)NC2=O)c2cccc(C#CCN3CCN(C[C@H]4CC[C@H](n5cc(NC(=O)c6cnn7ccc([C@H]8CCOC8)nc67)c(C(F)F)n5)CC4)CC3)c21 (some centres unmarked) [I-354]	DC50	> 200 nM
CO[C@H]1CN(c2cccc3c2n(C)c(=O)n3C2CCC(=O)NC2=O)CC[C@H]1N(C)C[C@H]1CC[C@H](n2cc3cc(NC(=O)c4cccc(C(F)(F)F)n4)ccc3n2)CC1 (some centres unmarked) [I-498]	DC50	> 200 nM
COc1cc2nn([C@H]3CC[C@H](CN(C)C4CCN(c5cccc6c5n(C)c(=O)n6C5CCC(=O)NC5=O)CC4(F)F)CC3)cc2cc1NC(=O)c1cccc(C(F)(F)F)n1 (some centres unmarked) [I-475]	DC50	> 200 nM
Cc1nn([C@H]2CC[C@H](CN3CCN(CC#Cc4cccc5c4n(C)c(=O)n5C4CCC(=O)NC4=O)CC3)CC2)cc1NC(=O)c1cnn2ccc(N3C[C@H]4C[C@@H]3CO4)nc12 (relative stereo) [I-115]	DC50	10 to 100 nM
Cn1c(=O)n(C2CCC(=O)NC2=O)c2cccc(C3CCN(C[C@H]4CC[C@H](n5cc6cc(NC(=O)c7cccc(C(F)(F)F)n7)c(C#N)cc6n5)CC4)CC3(F)F)c21 (some centres unmarked) [I-490]	DC50	> 200 nM
O=C1CCC(n2c(=O)n(C3CC3)c3c(C#CCN4CCN(C[C@H]5CC[C@H](n6cc(NC(=O)c7cnn8ccc(N9C[C@H]%10C[C@@H]9CO%10)nc78)c(C(F)F)n6)CC5)CC4)cccc32)C(=O)N1 (some centres unmarked) [I-4]	DC50	< 10 nM
Cn1c(=O)n(C2CCC(=O)NC2=O)c2cccc(OC3CC(N4CCN(C[C@H]5CC[C@H](n6cc(NC(=O)c7cnn8ccc(N9C[C@H]%10C[C@@H]9CO%10)nc78)c(C(F)F)n6)CC5)CC4)C3)c21 (some centres unmarked) [I-670]	DC50	> 200 nM
Cn1c(=O)n(C2CCC(=O)NC2=O)c2cccc(C#CCN3CCN(C[C@H]4CC[C@H](n5cc(NC(=O)c6cnn7ccc(N8CCOC(F)(F)C8)nc67)c(C(F)F)n5)CC4)CC3)c21 (some centres unmarked) [I-703]	DC50	> 200 nM
Cn1c(=O)n(C2CCC(=O)NC2=O)c2cccc(C3CN(C[C@H]4CC[C@H](n5cc6cc(NC(=O)c7cccc(C(F)(F)F)n7)ccc6n5)CC4)C3)c21 (some centres unmarked) [I-609]	DC50	> 200 nM
Cn1c(=O)n(C2CCC(=O)NC2=O)c2cccc(C3=CCN(C[C@H]4CC[C@H](n5cc6cc(NC(=O)c7cccc(C(F)(F)F)n7)c(C#N)cc6n5)CC4)CC3F)c21 (some centres unmarked) [I-713]	DC50	> 200 nM
Cn1c(NC(=O)c2cccc(C(F)(F)F)n2)cc2cn([C@H]3CC[C@H](CN4CCN(c5cccc6c5n(C)c(=O)n6C5CCC(=O)NC5=O)CC4)CC3)nc2c1=O (some centres unmarked) [I-767]	DC50	> 200 nM
Cc1ccc(-c2nn([C@H]3CC[C@H](CN4CCC(OCC#Cc5cccc6c5n(C)c(=O)n6C5CCC(=O)NC5=O)CC4)CC3)cc2NC(=O)c2cnn3cccnc23)c(F)c1 (some centres unmarked) [I-171]	DC50	> 200 nM
CN(C[C@H]1CC[C@H](n2cc(NC(=O)c3cnn4ccc(N5C[C@H]6C[C@@H]5CO6)nc34)c(C(F)F)n2)CC1)C1CCN(c2cccc3c2n(C)c(=O)n3C2CCC(=O)NC2=O)CC1(F)F (some centres unmarked) [I-502]	DC50	> 200 nM
Cn1c(=O)n(C2CCC(=O)NC2=O)c2cccc(N3CCC4(CCN(C[C@H]5CC[C@H](n6cc(NC(=O)c7cnn8cccnc78)c(C(F)F)n6)CC5)CC4)CC3)c21 (some centres unmarked) [I-236]	DC50	> 200 nM
COc1cc2nn([C@H]3CC[C@H](CN4CCC5(CC4)CCN(c4cccc6c4n(C)c(=O)n6C4CCC(=O)NC4=O)CC5)CC3)cc2cc1NC(=O)c1cncc(OC(F)(F)F)c1 (some centres unmarked) [I-147]	DC50	100 to 200 nM
Cn1c(=O)n(C2CCC(=O)NC2=O)c2cccc(CC[C@H]3CN(C[C@H]4CC[C@H](n5cc(NC(=O)c6cnn7ccc(N8C[C@H]9C[C@@H]8CO9)nc67)c(C(F)F)n5)CC4)CCO3)c21 (some centres unmarked) [I-385]	DC50	< 10 nM
Cn1c(=O)n(C2CCC(=O)NC2=O)c2cccc(C3CCN(C[C@H]4CC[C@H](n5cc6cc(NC(=O)c7cccc(C#N)n7)ccc6n5)CC4)CC3(F)F)c21 (some centres unmarked) [I-716]	DC50	> 200 nM
Cn1c(=O)n(C2CCC(=O)NC2=O)c2cccc(N3CCN([C@H]4CC[C@H](n5cc(NC(=O)c6cnn7ccc(N8C[C@H]9C[C@@H]8CO9)nc67)c(C(F)F)n5)CC4)CC3)c21 (some centres unmarked) [I-200]	DC50	10 to 100 nM
Cn1c(=O)n(C2CCC(=O)NC2=O)c2cccc(C#CCN3C4CC3CN(C[C@H]3CC[C@H](n5cc(NC(=O)c6cnn7ccc(N8C[C@H]9C[C@@H]8CO9)nc67)c(C(F)F)n5)CC3)C4)c21 (some centres unmarked) [I-345]	DC50	10 to 100 nM
Cn1c(=O)n(C2CCC(=O)NC2=O)c2cccc(C#CCOC3CCN(C[C@H]4CC[C@H](n5cc(NC(=O)c6cnn7ccc(N8CCC9(CCOC9)C8)nc67)c(C(F)F)n5)CC4)CC3)c21 (some centres unmarked) [I-331]	DC50	10 to 100 nM

====

- Measured Target: IRAK4 (Homo sapiens, UniProt Q9NWZ3)
- Construct: Degradation of IRAK4 in OCI-LY10 was quantitatively measured using Meso Scale Discovery technology; endogenous in cells; host or cells: OCI-LY10
- Measurement Protocol: IRAK4 MSD Degradation in OCI-LY10
- Format: cell-based
- Condition Parameters: OCI-LY10 cells, 24 hrs incubation, MSD; read-out: IRAK4 degradation in OCI-LY10 at 24 hrs: DC50
Each entry below lists one item and its recorded DC50 value.

Compound	DC50
Cn1c(=O)n(C2CCC(=O)NC2=O)c2cccc(N3CCC4(CCN(C[C@H]5CC[C@@H](n6cc(NC(=O)c7cnn8ccc(N9CC%10C[C@@H]9CO%10)nc78)c(C(F)F)n6)CC5)CC4)CC3)c21 (some centres unmarked) [I-188]	> 200 nM
O=C1CCC(c2cc(C#CCOC3CCN(C[C@H]4CC[C@H](n5cc(NC(=O)c6cnn7ccc(N8C[C@H]9C[C@@H]8CO9)nc67)c(C(F)F)n5)CC4)CC3)ccc2Cl)C(=O)N1 (some centres unmarked) [I-257]	> 200 nM
CN(c1cccc2c1n(C)c(=O)n2C1CCC(=O)NC1=O)C1CN(C[C@H]2CC[C@H](n3cc(NC(=O)c4cnn5ccc(N6C[C@H]7C[C@@H]6CO7)nc45)c(C(F)F)n3)CC2)C1 (some centres unmarked) [I-697]	< 10 nM
Cc1ccc(-c2nn([C@H]3CC[C@H](CN4CCC(OCC#Cc5cccc6c5n(C)c(=O)n6C5CCC(=O)NC5=O)CC4)CC3)cc2NC(=O)c2cnn3cccnc23)nc1 (some centres unmarked) [I-170]	10 to 100 nM
Cn1c(=O)n(C2CCC(=O)NC2=O)c2cccc(C3CCN(C[C@H]4CC[C@H](n5cc6cc(NC(=O)c7cccc(C#N)n7)ncc6n5)CC4)CC3(F)F)c21 (some centres unmarked) [I-615]	< 10 nM
